Data origin, for the record: patent US12728134B2

Test: Solubility of poorly water-soluble APIs in propylene carbonate
Assay type: physicochemical
Settings: organic solvent or mixture, thermodynamic from solid, solvent added in 10 μl steps to about 20 mg, mean of three samples
Where a name gives a salt, the structure may show the parent alone.
Readout name: solubility (mg/mL)
Use mg/mL as the unit, but write only the number.

Answered examples (3):
CN(C)CCCN1c2ccccc2CCc2ccccc21 [Imipramine hydrochloride]; 167
CN1CCN(C2=Nc3cc(Cl)ccc3Nc3ccccc32)CC1; 4.79
Cc1ccc(-c2cc(C(F)(F)F)nn2-c2ccc(S(N)(=O)=O)cc2)cc1; 267

# input Query solubility for CC(=O)Oc1ccc(C(c2ccc(OC(C)=O)cc2)c2ccccn2)cc1
# output 91.5

# input Query solubility for COC1=CC(=O)C[C@@H](C)[C@]12Oc1c(Cl)c(OC)cc(OC)c1C2=O
# output 16.8

====

Assay: Solubility of poorly water-soluble APIs in propylene carbonate
Assay type: physicochemical
Details: organic solvent or mixture, thermodynamic from solid, solvent added in 10 μl steps to about 20 mg, mean of three samples
The following molecules are listed with their measured solubility values.
Use mg/mL as the unit, but write only the number.

Answered examples (2):
Cc1ccc(S(=O)(=O)NC(=O)NN2CC3CCCC3C2)cc1 (stereo not drawn) [Gliclazide]; 32.3
COc1ccc2c(c1)c(CC(=O)O)c(C)n2C(=O)c1ccc(Cl)cc1 [Indomethacin]; 17.2

// next entry
# input Query solubility for COCCOC(=O)C1=C(C)NC(C)=C(C(=O)OC(C)C)C1c1cccc([N+](=O)[O-])c1 (stereo not drawn) [Nimodipine]
# output 144

====

Assay: physchem
Conditions: glycerol, organic solvent or mixture, thermodynamic from solid
Readout name: solubility at 10 min

# input Query solubility at 10 min for Cc1ccc(-c2cc(C(F)(F)F)nn2-c2ccc(S(N)(=O)=O)cc2)cc1
# output < 1000 µg/mL

====

Assay: physchem
Details: organic solvent or mixture, thermodynamic from solid
Readout name: solubility at 10 min

# input Query solubility at 10 min for COCCOC(=O)C1=C(C)NC(C)=C(C(=O)OC(C)C)C1c1cccc([N+](=O)[O-])c1 (stereo not shown)
# output < 1000 µg/mL

====

Assay: physchem
Conditions: tetraglycole (TEG), organic solvent or mixture, thermodynamic from solid
Readout name: solubility (mg/mL)
Use mg/mL as the unit, but write only the number.

# input Query solubility for Cc1ccc(-c2cc(C(F)(F)F)nn2-c2ccc(S(N)(=O)=O)cc2)cc1
# output 244
